src = patent US7651979B2

tested on: BlaM HeLa cells; format: cell-based, human; conditions: pure compounds made by non-combinatorial means
Readout label: response of independently synthesized compounds on the BlaM HeLa assay

[NH2][Pt]([Cl])([Cl])[NH]C1CCC1 [ammine-cyclobutylamine complex, cis-ammine(cyclobutylamine)PtCl2]; positive response
CC(C)N.CC(C)N.[Cl-].[Cl-].[Pt+2] [cis-(isopropylamine)2PtCl2]; positive response
[Cl][Pt]([Cl])([NH]C1CCC1)[NH]C1CCC1 [bis-cyclobutylamine species, cis-(cyclobutylamine)2PtCl2]; positive response
Cc1cccnc1N.N.[Cl][Pt][Cl]; positive response
